Origin of the recorded values: PubChem BioAssay AID1626

- Test system: M. tuberculosis H37Rv growth inhibition
- assay protocol: M. tuberculosis H37Rv growth inhibitors, H37Rv strain (AID 1626)
metric name: IC50

Lab request: please report IC50 under test system M. tuberculosis H37Rv growth inhibition for `N#Cc1c(SCC(N)=O)nsc1SCc1ccccc1Cl`
12.1 µM

What IC50 appears in the records for this compound with M. tuberculosis H37Rv growth inhibition? `Cc1cc(C)nc(-n2nc(C)cc2Nc2ccccc2)n1`
3.27 µM

Write down the reported IC50 of `O=C(NCCc1ccc(Cl)cc1)c1ccc(CNc2c(N3CCOCC3)c(=O)c2=O)cc1` , test system: M. tuberculosis H37Rv growth inhibition.
2.85 µM

Provide the documented IC50 with M. tuberculosis H37Rv growth inhibition as the system for `CC(C)(C)c1ccc(C(=O)CC(=O)c2cc(Cl)ccc2O)cc1`
2.67 µM

So what IC50 did `Nc1nc(CCl)nc(Nc2ccccc2)n1` get with M. tuberculosis H37Rv growth inhibition?
31.2 µM

// lookup IC50 | system=M. tuberculosis H37Rv growth inhibition | key= `COC(=O)CCCC(=O)Nc1ccc(Cl)c(Cl)c1`
23.1 µM

Identify the measured IC50 of CC1CC(C)(C)Nc2ccc(N=O)cc21 (stereo unspecified) for M. tuberculosis H37Rv growth inhibition.
5.75 µM

Checklist item: IC50 tested on M. tuberculosis H37Rv growth inhibition, entry `COC(=O)COc1ccc(-c2ccc(F)cc2)cc1C=O` , value?
5.69 µM

State its IC50 on M. tuberculosis H37Rv growth inhibition: `CC(C)c1ccc(NC(=O)NC2CCCCC2)cc1`
6.27 µM

Give M. tuberculosis H37Rv growth inhibition IC50 for `C/C(=C\C(=O)c1ccncc1)Nc1ccccc1O`
< 0.195 µM

API: value(readout=IC50, system=M. tuberculosis H37Rv growth inhibition) for record `C=C1C(=O)[C@@]23[C@H](O)C[C@@H]4C(C)(C)CC[C@H](O)[C@@]4(C)[C@@H]2CC[C@@H]1[C@H]3O`
8.62 µM

Short answer please: IC50, M. tuberculosis H37Rv growth inhibition, entry `Cc1ccc(Sc2cc(C)nc(-c3ccccn3)n2)cc1`
2.26 µM

Which IC50 is reported with M. tuberculosis H37Rv growth inhibition for this entry: `Cc1sc2nc[nH]c(=S)c2c1-c1ccccc1` ?
32.3 µM

Lab request: please report IC50 under test system M. tuberculosis H37Rv growth inhibition for `O=C(CSc1ccccn1)Nc1ccc2ccccc2c1`
8.69 µM

Kindly state the measured IC50 obtained for `O=C(C[n+]1cc(-c2ccccc2)n2c1CCC2)Nc1nc(-c2ccc(F)cc2)cs1` with M. tuberculosis H37Rv growth inhibition.
19.9 µM

Requested read-out IC50, target or system M. tuberculosis H37Rv growth inhibition, entry Cc1ccc2c(c1C)NC(=O)C21N2CCCC2C(C(=O)c2ccc3ccccc3c2)C12C(=O)Nc1ccccc12 (stereo unspecified)
39.3 µM

Return IC50 measured with M. tuberculosis H37Rv growth inhibition given this compound: `c1ccc(-c2cc3c(N4CCN(c5ccccc5)CC4)ncnc3s2)cc1`
11.3 µM

Missing value: IC50, M. tuberculosis H37Rv growth inhibition, entry `CCOc1ccc(N=Cc2c(O)n(-c3cccc(C)n3)c(=O)c3ccccc23)cc1` . Fill in?
14.7 µM

Field: IC50 (M. tuberculosis H37Rv growth inhibition). Entry: `CCc1ccc(/C=C/C(=O)C2C(=O)c3ccccc3C2=O)cc1`
1.76 µM

Give recorded IC50 with M. tuberculosis H37Rv growth inhibition for the following compound: CCOC(=O)C1=C(c2ccccc2)N=c2s/c(=C\c3ccc(O)cc3)c(=O)n2C1c1cccs1 (stereo unspecified)
8.75 µM

For the record `COc1cc(CC(=O)Nc2ccc3nc(SC)sc3c2)cc(OC)c1OC` , what value of IC50 is listed for M. tuberculosis H37Rv growth inhibition?
11.3 µM

Entry `O=C(Oc1c(Cl)cc(Cl)c2cccnc12)c1ccco1` , system M. tuberculosis H37Rv growth inhibition: what IC50 was measured?
1.28 µM

State its IC50 on M. tuberculosis H37Rv growth inhibition: `Cc1nc(-c2ccccn2)nc(SCC(=O)c2ccccc2)c1Cl`
3.68 µM

Enter reported IC50 observed with M. tuberculosis H37Rv growth inhibition for `CN1CCN(c2nc(-c3ccccc3)nc3c2oc2ccccc23)CC1`
5.55 µM

Hi! What's the reported IC50 for `COc1cc(OC)cc(C(=O)Nc2nc(-c3ccccc3)c(-c3ccccc3)o2)c1` on M. tuberculosis H37Rv growth inhibition?
0.322 µM

Tell me reported IC50 for `CCOC(=O)c1cnc(-n2nc(C)cc2C)nc1Nc1ccc(N(C)C)cc1` , tested with M. tuberculosis H37Rv growth inhibition.
< 0.195 µM
